biological target: GST-Xa-hAAK1 (Homo sapiens (Human), UniProt Q2M2I8); experiment: biochemical; conditions: ATP 22 μM; GST-Xa-hAAK1 3.5 nM; room temperature for 3 hours; Caliper LabChip 3000; read-out: AAK1 IC50
Sequence (Q2M2I8 whole entry): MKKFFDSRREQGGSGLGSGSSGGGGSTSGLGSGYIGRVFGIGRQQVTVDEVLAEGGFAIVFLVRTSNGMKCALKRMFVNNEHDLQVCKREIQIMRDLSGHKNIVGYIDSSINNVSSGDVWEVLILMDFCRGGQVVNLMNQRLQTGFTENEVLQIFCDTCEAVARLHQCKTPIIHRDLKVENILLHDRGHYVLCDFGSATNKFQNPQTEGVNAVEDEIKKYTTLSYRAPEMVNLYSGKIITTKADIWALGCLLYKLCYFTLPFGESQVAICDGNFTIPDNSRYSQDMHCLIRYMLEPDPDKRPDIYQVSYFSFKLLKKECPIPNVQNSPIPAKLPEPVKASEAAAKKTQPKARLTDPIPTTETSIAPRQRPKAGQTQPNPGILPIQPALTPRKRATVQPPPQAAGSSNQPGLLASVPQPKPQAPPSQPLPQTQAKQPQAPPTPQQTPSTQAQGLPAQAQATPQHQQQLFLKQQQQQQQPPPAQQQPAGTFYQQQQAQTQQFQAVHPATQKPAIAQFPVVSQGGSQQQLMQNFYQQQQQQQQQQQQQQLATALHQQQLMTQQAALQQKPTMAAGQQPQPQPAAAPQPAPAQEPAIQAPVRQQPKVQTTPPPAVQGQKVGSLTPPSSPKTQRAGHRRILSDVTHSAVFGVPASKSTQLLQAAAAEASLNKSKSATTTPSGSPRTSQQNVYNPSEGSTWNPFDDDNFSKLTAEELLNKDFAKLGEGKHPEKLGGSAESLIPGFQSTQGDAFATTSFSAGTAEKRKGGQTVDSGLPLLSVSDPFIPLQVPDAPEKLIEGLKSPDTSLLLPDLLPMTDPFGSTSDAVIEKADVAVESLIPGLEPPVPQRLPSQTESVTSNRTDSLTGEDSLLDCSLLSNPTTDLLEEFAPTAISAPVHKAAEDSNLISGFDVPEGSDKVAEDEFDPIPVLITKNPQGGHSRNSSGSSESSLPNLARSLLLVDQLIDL
pIC50: −log10 of the molar value.
Heads up, the class ranges for pIC50 are LOW (below 6), MID (6 to below 7), HIGH (7 or more)

Below, 4 compounds whose answers are already recorded.
[[record]]
compound = "NC(CC(C(F)(F)F)C(F)(F)F)c1nc2ccc(-c3cnco3)cc2[nH]1 (stereo not shown)"
study_system = "GST-Xa-hAAK1 (Homo sapiens (Human), UniProt Q2M2I8)"
category_label = "MID"

[[record]]
compound = "CNc1cc(-c2ccc3[nH]c([C@@H](CC(C)C)NC)nc3c2)ccn1"
study_system = "GST-Xa-hAAK1 (Homo sapiens (Human), UniProt Q2M2I8)"
category_label = "HIGH"

[[record]]
compound = "CC(C)CC(C)c1nc2cc(-c3ccncc3)ccc2[nH]1 (stereo not shown)"
study_system = "GST-Xa-hAAK1 (Homo sapiens (Human), UniProt Q2M2I8)"
category_label = "HIGH"

[[record]]
compound = "CC(C)CCc1nc2cc(-c3ccncc3)ccc2o1"
study_system = "GST-Xa-hAAK1 (Homo sapiens (Human), UniProt Q2M2I8)"
category_label = "MID"


Alright, here's another compound for you.
Req: Exercise: read the entry CCn1c([C@H](N)CC(C)C)nc2cc(-c3cnco3)ccc21 and state which class it falls under.
Resp: LOW

----------
target: GST-Xa-hAAK1 (Homo sapiens (Human), UniProt Q2M2I8); assay: biochemical
pIC50: −log10 of the molar value.
Heads up, the class ranges for pIC50 are low value: < 7; medium value: ≥ 7 and < 8; high value: ≥ 8

[[record]]
molecule = "CC(C)C[C@@H](N)c1nc2cc(-c3ccnc4[nH]ccc34)ccc2[nH]1 [Example 6]"
category_label = "high value"


Req: Exercise: read the entry CC(C)(C)OCc1nc2ccc(-c3ccncc3)cc2[nH]1 [Example 55] and state which class it falls under.
Resp: low value

Req: Exercise: read the entry Cc1noc(C)c1-c1ccc2[nH]c([C@H](N)CC(C)C)nc2c1 [Example 78] and state which class it falls under.
Resp: low value

Req: Exercise: read the entry CNC(CC(C)C)c1nc2cc(-c3ccncc3)c(OC)cc2[nH]1 (stereo not drawn) [Example 73] and state which class it falls under.
Resp: low value

Req: Exercise: read the entry CC(C)CC(CN)c1nc2cc(-c3ccncc3)ccc2[nH]1 (stereo not drawn) [Example 67] and state which class it falls under.
Resp: medium value

Req: Exercise: read the entry CC(C)C[C@@H](N)c1nc2cc(-c3cnco3)ccc2[nH]1 [Example 4] and state which class it falls under.
Resp: medium value

----------
Target: GST-Xa-hAAK1 (Homo sapiens (Human))
Assay: biochemical
Conditions: ATP 22 μM; GST-Xa-hAAK1 3.5 nM; room temperature for 3 hours; Caliper LabChip 3000; read-out: AAK1 IC50
Experimental: The assays were performed in U-bottom 384-well plates. […] The reactions were initiated by the combination of bacterially expressed, GST-Xa-hAAK1 with substrates and test compounds. […] The reactions were analyzed on the Caliper LabChip 3000 (Caliper, Hopkinton, Mass.) by electrophoretic separation of the fluorescent substrate and phosphorylated product. […] Compounds were dissolved at 10 mM in dimethylsulfoxide (DMSO) and evaluated at eleven concentrations. […]
test readout: pIC50
One number for each entry, as −log10 of the molar value.

[[record]]
compound = "CC(C)C[C@@H](N)c1nc2cc(-c3ccnc(N)n3)ccc2[nH]1"
readout_number = 6.69

[[record]]
compound = "CC(C)C[C@@H](N)c1nc2cc(-c3cc(F)nc(F)c3)ccc2[nH]1"
readout_number = 5.40


For each of the compounds below, note its pIC50.
1. CC(C)CC(N)c1nc2ccc(-c3ccncc3)cc2o1 (stereo not drawn)
2. CC(C(N)c1nc2ccc(-c3ccncc3)cc2[nH]1)C(F)(F)F (single isomer, unassigned)
3. CC(C)C[C@@H](N)c1nc2cc(-c3ccnc(N(C)C)n3)ccc2[nH]1
4. CC(C)C[C@@H](N)c1nc2ccc(-c3cnco3)cc2n1CCO

Resp:
6.36
6.28
6.70
6.25

For each of the compounds below, note its pIC50.
1. COc1cc2[nH]c(C(C)(N)CC(C)C)nc2cc1-c1cnco1 (stereo not drawn)
2. CC(C)CC(C)c1nc2ccc(-c3ccncc3)cc2o1 (stereo not drawn)
3. CCCn1c([C@H](N)CC(C)C)nc2ccc(-c3ccncc3)cc21

Resp:
1: 7.22; 2: 7.04; 3: 6.99

----------
Molecular target: GST-Xa-hAAK1 (Homo sapiens (Human))
Assay: biochemical
Details: ATP 22 μM; GST-Xa-hAAK1 3.5 nM; room temperature for 3 hours; Caliper LabChip 3000; read-out: AAK1 IC50
Protocol: The assays were performed in U-bottom 384-well plates. […] The reactions were initiated by the combination of bacterially expressed, GST-Xa-hAAK1 with substrates and test compounds. […] The reactions were analyzed on the Caliper LabChip 3000 (Caliper, Hopkinton, Mass.) by electrophoretic separation of the fluorescent substrate and phosphorylated product. […] Compounds were dissolved at 10 mM in dimethylsulfoxide (DMSO) and evaluated at eleven concentrations. […]
Field: log10(IC50). Provide a value for each of the molecules that follow.
// stored as log10 of IC50 expressed in µM

// below: answered molecules
[[record]]
molecule = "CC(C)C[C@@H](N)c1nc2cc(-c3ccncc3F)ccc2[nH]1"
test_readout = "log10(IC50)"
readout_number = -1.36

[[record]]
molecule = "NC(CC(C(F)(F)F)C(F)(F)F)c1nc2cc(-c3ccncc3)ccc2o1 (stereo not drawn)"
test_readout = "log10(IC50)"
readout_number = -0.41


For each of the molecules below, note its log10(IC50).
1. CC(C)C[C@@H](N)c1nc2cc(-c3ncnc4[nH]ccc34)ccc2[nH]1
2. COc1cnccc1-c1cc(OC)c2[nH]c([C@H](N)CC(C)C)nc2c1
3. c1cc(-c2ccc3[nH]c(CC4CCCC4)nc3c2)ccn1
4. CC(C)C[C@@H](N)c1nc2ccc(-c3ccncc3)cc2n1C(C)C
5. CC(C)C[C@@H](N)c1nc2cc(-c3ccnc4ccccc34)ccc2[nH]1

Resp:
[-2.40, -0.26, -0.98, -0.91, -1.89]

For each of the molecules below, note its log10(IC50).
1. COc1cc(-c2cnco2)cc2[nH]c(CCC(C)C)nc12
2. CC(C)C[C@@H](N)c1nc2ccc(-c3cnco3)cc2n1CC(F)(F)F

Resp:
1. -0.66
2. -0.76

----------
target: UniProtKB Q2M2I8; test: biochemical; conditions: ATP 22 μM; GST-Xa-hAAK1 3.5 nM; room temperature for 3 hours; Caliper LabChip 3000; read-out: AAK1 IC50
Field: IC50. Provide a value for each of the compounds that follow.
Numbers only, in nM.

For each of the compounds below, note its IC50.
1. CNC(CC(C)C)c1nc2cc(-c3cnco3)c(OC)cc2[nH]1 (stereo not drawn) [Example 107]
2. CCn1c([C@H](N)CC(C)C)nc2ccc(-c3cn[nH]c3)cc21 [Example 34]
3. COc1cc(-c2ccc3[nH]c(CCC(C)C)nc3c2)ccn1 [Example 57]
4. CC(C)C[C@@H](N)c1nc2cc(-c3ccncc3)ccc2s1 [Example 96]
5. CC(C)C[C@@H](N)c1nc2cc(-c3ccncc3)c(F)cc2[nH]1 [Example 30]
6. CC(C)C[C@@H](N)c1nc2cc(-c3ccnc(C#N)c3)ccc2[nH]1 [Example 15]
7. COc1cc(-c2ccc3[nH]c([C@H](N)CC(C)C)nc3c2)c(F)cn1 [Example 20]
8. CN[C@H](CC(C)C)c1nc2ccc(-c3cnco3)cc2[nH]1 [Example 101]

Resp:
16
98
1550
797
88
289
489
34

Req: What IC50 appears in the records for this compound with UniProtKB Q2M2I8? COc1cnccc1-c1ccc2[nH]c(CCC(C)C)nc2c1 [Example 56]
Resp: 620

----------
molecular target: GST-Xa-hAAK1 (Homo sapiens (Human), UniProt Q2M2I8); assay: biochemical; details: ATP 22 μM; GST-Xa-hAAK1 3.5 nM; room temperature for 3 hours; Caliper LabChip 3000; read-out: AAK1 IC50
Heads up, the class ranges for IC50 are 1 = under 100 nM, 2 = from 100 nM up to 400 nM, 3 = 400 nM and over

[[record]]
molecule = "CCn1c([C@H](N)CC(C)C)nc2cc(-c3ccncc3)ccc21"
study_system = "GST-Xa-hAAK1 (Homo sapiens (Human), UniProt Q2M2I8)"
category_label = 3

[[record]]
molecule = "CCn1c([C@H](N)CC(C)C)nc2ccc(-c3cnco3)cc21"
study_system = "GST-Xa-hAAK1 (Homo sapiens (Human), UniProt Q2M2I8)"
category_label = 3

[[record]]
molecule = "CC(C)(F)CC(N)c1nc2cc(-c3ccncc3)ccc2[nH]1 (centres unmarked)"
study_system = "GST-Xa-hAAK1 (Homo sapiens (Human), UniProt Q2M2I8)"
category_label = 2

[[record]]
molecule = "c1cc(-c2ccc3oc(CCC4CCCC4)nc3c2)ccn1"
study_system = "GST-Xa-hAAK1 (Homo sapiens (Human), UniProt Q2M2I8)"
category_label = 3

[[record]]
molecule = "NC(CCC(F)(F)F)c1nc2cc(-c3ccncc3)ccc2o1 (centres unmarked)"
study_system = "GST-Xa-hAAK1 (Homo sapiens (Human), UniProt Q2M2I8)"
category_label = 2


Alright, here's another molecule for you.
Req: Exercise: read the entry CC(C)C[C@@H](N)c1nc2ccc(-c3ccncc3)cc2n1CCO and state which class it falls under.
Resp: 2

All values here come from patent US10035777B2.
